experiment: The drug is tested on Bacteroides finegoldii strain: DSM17565 for biotransformation. The drug concentrations were measured before and after a 12-h incubation by liquid-chromatography-coupled mass spectrometry (LC–MS); settings: 2 µM
ASSAY READOUT: Bacterial Biotransformation

Worked cases, Bacterial Biotransformation given:
| COMPOUND | MEASURED RESULT |
| --- | --- |
| CCC(=O)NCC[C@@H]1CCc2ccc3c(c21)CCO3 | Compound NOT metabolized |
| CCCCC(=O)O[C@]1(C(=O)CO)[C@@H](C)C[C@H]2[C@@H]3CCC4=CC(=O)C=C[C@]4(C)[C@@]3(F)[C@@H](O)C[C@@]21C [BETAMETHASONE VALERATE] | Compound metabolized |
| CN(C)CCc1c[nH]c2ccc(CS(=O)(=O)N3CCCC3)cc12 | Compound NOT metabolized |
| CN1[C@@H]2CC[C@H]1C[C@@H](OC(=O)C(CO)c1ccccc1)C2 (stereo partly drawn) | Compound NOT metabolized |
| CN1CC(=O)N2[C@H](c3ccc4c(c3)OCO4)c3[nH]c4ccccc4c3C[C@@H]2C1=O | Compound NOT metabolized |

Summary for this compound, O=c1[nH]c2ccccc2n1C1CCN(CCCC(c2ccc(F)cc2)c2ccc(F)cc2)CC1 [PIMOZIDE] : Bacterial Biotransformation is Compound NOT metabolized

Summary for this compound, OCCN1CCN(CCCN2c3ccccc3Sc3ccc(C(F)(F)F)cc32)CC1 : Bacterial Biotransformation is Compound metabolized

Summary for this compound, CC(=O)SCC(Cc1ccccc1)C(=O)NCC(=O)OCc1ccccc1 (stereo not drawn) : Bacterial Biotransformation is Compound metabolized

# credit: ChEMBL document CHEMBL5303573
